These measurements were taken from PubChem BioAssay AID686978.

- protocol.notes: qHTS for Inhibitors of human tyrosyl-DNA phosphodiesterase 1 (TDP1): qHTS in cells in absence of CPT; note: nearly all actives have a fitted effect of over 55% in size
- run.parameters: DT40 Tdp1-/- hTDP1 cells, no CPT, ATP luminescence, 48 h
Screen size: about 420,000 compounds; about 64,000 (15%) were called active. Another 27% or so got no clear call; they are omitted. Calls come from the whole dose curve; as a rule, active = well fitted inhibition curve with a large enough effect; inconclusive = small, poorly fitted or top-dose-only effect; inactive = flat fitted curve, though single readings scatter. A selection follows.
A correct response names exactly one class from active, inactive

Ask: Outcome? `CC(=O)c1ccc2c(c1)c1ccccc1n2CC(C)C`
Result: inactive

Ask: Here is the next compound: `O=C(COc1nc2ccccc2nc1N1CCOCC1)NCC(F)(F)F`
Result: inactive

Ask: Then this compound: `COc1ccc(-c2nc(CN3CCN(c4ncccn4)CC3)c(C)o2)cc1C`
Result: active

Ask: Field entry: `Cc1ccc(C(=O)NNC(=O)c2ccncc2)cc1S(=O)(=O)N1CCCCC1`
Result: inactive

Ask: Next up: `N#CC(C(N)=O)=C1CCC2(CC1)OCCCCO2`
Result: inactive

Ask: Another compound: `CCN(c1ccccc1)S(=O)(=O)c1ccc2[nH]c(=O)[nH]c2c1`
Result: inactive

Ask: Would you mind doing Cc1ccc(S(=O)(=O)N2CCOCC2)cc1C(=O)OC1CCCCC1=O (configuration not stated) as well?
Result: inactive

Ask: Try `O=C(c1ccccn1)c1ncc(C(F)(F)F)cc1Cl` next.
Result: inactive

Ask: Would you kindly repeat that for `Nc1ncnc2nnsc12` ?
Result: inactive

Ask: Repeat with `N#Cc1ccc[n+](CC(=O)c2ccc(O)c(O)c2)c1`
Result: inactive

Ask: Try this compound next: `Cc1ccc(CN2CCN(c3ncccn3)CC2)c(C)c1`
Result: inactive

Ask: Another compound: `Cn1cccc1/C=C1\SC(=S)N(NC(=O)c2ccc(Cl)cc2)C1=O`
Result: inactive

* * *

- protocol.notes: qHTS for Inhibitors of human tyrosyl-DNA phosphodiesterase 1 (TDP1): qHTS in cells in absence of CPT; note: nearly all actives have a fitted effect of over 55% in size
- run.parameters: DT40 Tdp1-/- hTDP1 cells, no CPT, ATP luminescence, 48 h
In all, about 420,000 compounds went through this assay and about 64,000 (15%) were called active. Another 27% or so got no clear call; they are omitted. Calls come from the whole dose curve; as a rule, active = well fitted inhibition curve with a large enough effect; inconclusive = small, poorly fitted or top-dose-only effect; inactive = flat fitted curve, though single readings scatter. Not all results are given here.
Entry note: the call must match one of true (1) = active, false (0) = inactive

Ask: Status in this test for `Cc1cc2[nH]ncc2cc1NC(=S)NC(=O)c1ccccc1` ?
Result: true (1)

Ask: Would you kindly repeat that for `Cn1c(=O)c2c(SCC(=O)N3CCOCC3)nc(C3CC3)nc2n(C)c1=O` ?
Result: false (0)

Ask: What do you have for `O=C(N/N=C/c1ccc(O)c(O)c1)C1c2ccccc2Oc2ccccc21` ?
Result: true (1)

Ask: Here is the next molecule: `COC(=O)[C@@H]1C[C@H]2CC[C@H](O)C[C@H]2N1Cc1ccc(N2CCN(C)CC2)cc1`
Result: false (0)

Ask: Would you kindly repeat that for `O=C(O)CCCCc1nc2ccccc2s1` ?
Result: false (0)

Ask: Same again, this time with CCCOC(=O)CC1C(=O)NCCN1Cc1ccc(F)cc1 (stereo unspecified)
Result: false (0)

Ask: Moving on to `CCc1cnc2c(c1SCC(=O)N1CCC(C)CC1)c(=O)n(C)c(=O)n2C`
Result: true (1)

Ask: Input `COCCCn1c(SCc2cccc(OC)c2)nc2cc(OC)c(OC)cc2c1=N`
Result: true (1)

Ask: Same question, Cc1cccc(CCNC(=O)c2ccc3c(c2)nc2n3CCC(C)C2)c1 (stereo unspecified) this time
Result: true (1)

Ask: Another molecule: `O=C(Nc1ccccc1)N[C@H]1C[C@H](C(=O)O)Nc2cc(Cl)cc(Cl)c21`
Result: false (0)

Ask: Then `COc1ccc(CNC(=O)CN(Cc2ccccc2Cl)C(=O)c2csnn2)cc1` ?
Result: false (0)

Ask: Request: `Cc1[nH]c(N)nc(=S)c1CCCNc1ccccc1`
Result: true (1)

Ask: And then `Cc1cc(C(C)(C)C)oc1C(=O)N(CC(=O)NC1CCCC1)Cc1ccc(Cl)cc1` , what is it?
Result: true (1)

Ask: What about `CCOC(=O)N1CCN(C(=O)CSc2nc(C)nc3c2c(=O)n(C)c(=O)n3C)CC1` ?
Result: false (0)

Ask: Also `CCN(CC)CCn1c2c(c(SCC(=O)Nc3nc4ccccc4s3)nc1=O)CCCC2` ?
Result: false (0)

Ask: Try this molecule next: `Cc1ccc(CN(CC(=O)NC2CCCCC2)C(=O)c2csnn2)cc1`
Result: false (0)

Ask: Can you check `COc1ccc(CNC(=O)c2ccc3c(c2)nc2n3CCOC2)c(OC)c1` next?
Result: false (0)

Ask: Same question, `COC(=O)c1nc(NC(=O)c2ccccc2)n[nH]1` this time
Result: false (0)

Ask: Now try `Fc1cc(F)c2nc(N3CCOCC3)sc2c1` .
Result: false (0)

Ask: Repeat with `Cc1ccc(C(=O)NC(=S)Nc2ccc3[nH]c(=O)[nH]c3c2)cc1C`
Result: false (0)

Ask: And the next one, O=C(Nc1nnc(C2CC2)s1)C1=NN(C2CCS(=O)(=O)C2)C(=O)CC1 (stereo unspecified) ?
Result: false (0)

* * *

- protocol.notes: qHTS for Inhibitors of human tyrosyl-DNA phosphodiesterase 1 (TDP1): qHTS in cells in absence of CPT; note: nearly all actives have a fitted effect of over 55% in size
- run.parameters: DT40 Tdp1-/- hTDP1 cells, no CPT, ATP luminescence, 48 h
Among all 420,000 compounds or so, about 64,000 (15%) were called active. Roughly 27% stayed inconclusive and do not appear here. Calls come from the whole dose curve; as a rule, active = well fitted inhibition curve with a large enough effect; inconclusive = small, poorly fitted or top-dose-only effect; inactive = flat fitted curve, though single readings scatter. A selection follows.
Choose the fitting class; nothing outside YES for active, NO for inactive is accepted.

Ask: For `CC(=O)Nc1ccc(/C=N/NC(=O)c2cccs2)cc1` , which call appears in the assay record?
Result: NO

Ask: Please do the same for `CCn1cc(CNC(=O)c2cc([N+](=O)[O-])c(C)c([N+](=O)[O-])c2)cn1` as well.
Result: NO

Ask: Subsequent entry: `COc1ccc(C(=O)COC(=O)c2nn(C)c(=O)c3ccccc23)c(OC)c1`
Result: NO

Ask: Another compound: `COC(C/C=C/C(=O)[C@@H](C)OCc1ccccc1)OC`
Result: YES

Ask: Moving on to `C#CCN(C[C@H]1[C@H](OC(=O)NC2CCCC2)[C@H](OC(=O)NC2CCCC2)C[C@H]2C(=O)N(c3ccccc3)C(=O)[C@@H]12)S(=O)(=O)c1ccc(C)cc1`
Result: NO

Ask: Again, but for `Cn1nc(-c2ccccc2)c2cc([N+](=O)[O-])ccc21`
Result: NO

Ask: What do we get for `Cc1ccc(S(=O)(=O)N(C)CC(=O)NC2CCCC2)cc1` ?
Result: NO

Ask: Queued: `CCOc1cc(/C=N/n2cnnc2)c(Br)cc1O`
Result: NO

Ask: COc1ccc(C(C)(NC(C)=O)c2nc(-c3ccc(S(C)(=O)=O)cc3)cs2)cc1 (stereo unspecified) ?
Result: NO

Ask: How about `Cc1cccc(-n2c(C)cc(/C=N/NC(N)=S)c2C)c1` ?
Result: YES

Ask: # repeat for `COC(C[C@@H]1O[C@@H]1C(=O)[C@H](C)OCc1ccccc1)OC`
Result: NO

* * *

- protocol.notes: qHTS for Inhibitors of human tyrosyl-DNA phosphodiesterase 1 (TDP1): qHTS in cells in absence of CPT; note: nearly all actives have a fitted effect of over 55% in size
- run.parameters: DT40 Tdp1-/- hTDP1 cells, no CPT, ATP luminescence, 48 h
- Protocol: Human tyrosyl-DNA phosphodiesterase 1 (TDP1) is a novel repair gene, and we propose to use it as a new target for anticancer drug development. […] For the primary screen, Tdp1-/-;hTDP1 cells will be exposed to small molecules in the presence or absence of CPT, and their growth kinetics will be evaluated after 48 hours by measuring ATP activity. […] The hit compounds will then be evaluated in the presence or absence of CPT using Tdp1-/- cells. […]
About 64,000 (15%) of roughly 420,000 compounds were called active. Roughly 27% stayed inconclusive and do not appear here. Calls follow the shape of the dose curve; as a rule, active = well fitted inhibition curve with a large enough effect; inconclusive = small, poorly fitted or top-dose-only effect; inactive = flat fitted curve, though single readings scatter. Only a sample is shown.
Returns: one label drawn from 1.0 (active), 0.0 (inactive)

Ask: Per the assay record, what outcome was assigned to CC(CO)N1CCS(=O)(=O)CC1 (stereo not drawn) ?
Result: 0.0

Ask: Check Cc1cn(C2OC[C@@H](O)[C@@H]2CO)c(=O)[nH]c1=O (stereo partly drawn) too.
Result: 0.0

Ask: Also, COc1ccc(C(=O)C2CCCN(C(=O)c3ccc(OC)o3)C2)c(C)c1 (stereo not drawn) please.
Result: 1.0

Ask: What about Cc1nc(C)c(C(=O)N(c2ccc(C)c(C)c2)C(C(=O)NCc2ccco2)c2ccccc2)s1 (stereo not drawn) ?
Result: 0.0

Ask: Could you do the same for `Cc1cc(C)c2cc(C#N)c(N3CCNCC3)nc2c1` , please?
Result: 1.0

Ask: Repeat with `CO[C@H]1O[C@@H]2O[C@@]3(C)CC[C@@H]4[C@@H](C)CC[C@@H]([C@H]1C)[C@@]24OO3`
Result: 1.0

Ask: Try this molecule too: Cc1nn(-c2ccccc2)c2sc(C(=O)N(Cc3ccco3)C(C)C(=O)NC(C)(C)C)cc12 (stereo not drawn)
Result: 1.0

Ask: Quick one: `CS(=O)(=O)N1CCC2(CCN(c3ccncc3)CC2)CC1`
Result: 0.0

Ask: Lookup Cc1cc(Cl)ccc1C(=O)C1CCCN(C(=O)c2ccc3c(c2)OCO3)C1 (stereo not drawn)
Result: 1.0

Ask: // repeat for `Cn1c(NCc2cccnc2)nc2cc(-c3ccc(F)cc3)sc2c1=O` and report
Result: 0.0

Ask: What do we get for `Cc1ccc(CNC(=O)COc2ccc(S(=O)(=O)NC(C)C)cc2)cc1` ?
Result: 0.0

Ask: Continue with `c1csc(-c2nc(-c3ccncc3)no2)c1`
Result: 0.0

Ask: // repeat for `O=C(COC(=O)COc1ccccc1F)Nc1cccc(S(=O)(=O)N2CCCCC2)c1` and report
Result: 0.0

Ask: Also, `COC(C[C@@H]1O[C@@H]1C(=O)[C@@H](C)OCc1ccccc1)OC` please.
Result: 0.0

Ask: `Cn1c(SCC(=O)Nc2nccs2)nnc1-c1cccnc1` , same question.
Result: 0.0

Ask: Do the same for `O=S(=O)(Nc1ccccc1Br)c1cccs1` please
Result: 0.0

Ask: Ok, now `COC(=O)[C@]12CCCCC=C1N(CCC1=CCCCC1)C(=O)[C@H](CC(=O)N1CCSCC1)C2`
Result: 1.0

Ask: Ok, now CCCC1OC23CCCCC2C(C#N)(C#N)C1(C#N)C(=N)O3 (stereo not drawn)
Result: 1.0

Ask: And for CC1CC(C)CN(c2oc(-c3ccc(OCc4ccc(Cl)cc4)cc3)nc2C#N)C1 (stereo not drawn) ?
Result: 0.0

Ask: Moving on to the next molecule: `COc1ccc(-n2ncc3c(N4CCCc5ccccc54)ncnc32)cc1`
Result: 0.0

Ask: How about this molecule: CN(C(=O)c1cccc(OC2CCN(S(=O)(=O)N(C)C)CC2)c1)C1CCOC1 (stereo not drawn)
Result: 0.0

Ask: Entry to check: `O=C(c1cc(COc2c(F)cccc2F)on1)N1CCSCC1`
Result: 0.0

Ask: Could you do the same for CCn1nc(C)cc1C(=O)N1CCCC(C(=O)c2cccc(OC)c2)C1 (stereo not drawn) , please?
Result: 0.0

Ask: Then what about the molecule `COc1ccc(NC(=O)CS(=O)(=O)c2ccccc2)cc1` ?
Result: 0.0

Ask: Entry to check: COC(=O)c1cccc(N2C(=O)C3C4C=CC(CC4)C3C2=O)c1 (stereo not drawn)
Result: 0.0

Ask: Now the same for `Cc1ccc(NC(=O)c2ccc(Oc3ncccn3)cc2)cc1`
Result: 0.0

Ask: Okay, and COCCNC(=O)C1C(=O)Nc2ccccc2C(=O)N1c1ccc2c(c1)OCCO2 (stereo not drawn) ?
Result: 0.0

Ask: Then `CCOC(=O)CN1C(C(=O)c2ccccc2)=C(OC(=O)C(C)(C)C)c2ccccc2S1(=O)=O` ?
Result: 1.0

Ask: For `CCOC(=O)C1CCN(S(=O)(=O)c2c(C)noc2C)CC1` then?
Result: 0.0

Ask: What about `CN(C)C(=O)c1ccc(NC(=O)COC(=O)c2cc3c(s2)CCCCC3)cc1` ?
Result: 0.0

Ask: Do the same for O=C1CSC(c2cccc(F)c2)N1c1ccc(O)cc1 (stereo not drawn) please
Result: 0.0

Ask: What do you have for `O=C(NCCCO)C(=O)Nc1c2c(nn1-c1ccccc1)CSC2` ?
Result: 0.0

Ask: Query `CNS(=O)(=O)c1cccc(C(=O)NCC2CCCCC2)c1` next
Result: 0.0
